# Tested on: Murine leukemia cells (P388)
# Experiment summary: Cell growth inhibition by direct cell counting, P388
# Assay type: cell-based
# Reported conditions: Mus musculus, read-out: IG50 P388
Assay metric: IC50 (nM)

Compound structure string: C[C@H]1[C@@H](Oc2ccc(CN3CCCCC3)cc2)O[C@@H]2O[C@]3(C)CC[C@H]4[C@H](C)CC[C@@H]1[C@@]24OO3
Recorded measurement: 880

###

Assay metric: melting point

Compound structure string: C[C@H]1[C@@H](Oc2ccc(Cn3ccnc3)cc2)O[C@@H]2O[C@]3(C)CC[C@H]4[C@H](C)CC[C@@H]1[C@@]24OO3
Assay metric: melting point
Recorded measurement: 65 to 67 °C
--
Compound structure string: C[C@H]1[C@@H](Oc2ccc(/C=C/C(=O)N3CCCC3)cc2)O[C@@H]2O[C@]3(C)CC[C@H]4[C@H](C)CC[C@@H]1[C@@]24OO3
Assay metric: melting point
Recorded measurement: 165 to 167 °C
--
Compound structure string: C[C@H]1[C@@H](Oc2ccc(CC(=O)Nc3ccccc3)cc2)O[C@@H]2O[C@]3(C)CC[C@@H]4[C@H](C)CC[C@@H]1[C@@]24OO3
Assay metric: melting point
Recorded measurement: 172 to 173 °C
--
Compound structure string: C[C@H]1[C@@H](Oc2ccc(/C=C/C(=O)Oc3ccc(/C=C/C(=O)N4CCCCC4)cc3)cc2)O[C@@H]2O[C@]3(C)CC[C@H]4[C@H](C)CC[C@@H]1[C@@]24OO3
Assay metric: melting point
Recorded measurement: 160 to 163 °C
--
Compound structure string: C[C@H]1[C@@H](Oc2ccc(CC(=O)N3CCCC3)cc2)O[C@@H]2O[C@]3(C)CC[C@@H]4[C@H](C)CC[C@@H]1[C@@]24OO3
Assay metric: melting point
Recorded measurement: 73 to 74 °C
